# EXPERIMENT DESCRIPTION: in vitro
# Format: in vitro ADME
# TEST CONTEXT: pH 7.4; conversion of profenofos to BCP, rat plasma

>  <MOLECULE>
CCCSP(=O)(OCC)Oc1ccc(Br)cc1Cl (stereo not shown)

>  <Km (µM)>
3.6

$$$$

---

# EXPERIMENT DESCRIPTION: in vitro
# Assay type: in vitro ADME
# TEST CONTEXT: pH 7.4; conversion of profenofos to BCP, rat liver cytosol
# Method: Incubations of profenofos with rat and human liver microsomes, liver cytosol and plasma were performed to quantify in vitro rates of BCP formation. Conditions were optimized to be linear for metabolite formation with regard to incubation time and microsomal, cytosolic and plasma protein concentration (data not shown). […] The mixture was centrifuged at 14,000g for 20 min at 4 °C and the supernatant was analyzed using UPLC-UV. […]

>  <MOLECULE>
CCCSP(=O)(OCC)Oc1ccc(Br)cc1Cl (stereo not shown) [profenofos]

>  <UNIT INFO>
µM

>  <Km>
0.34

$$$$

---

# EXPERIMENT DESCRIPTION: in vitro
# Format: in vitro ADME, human
# TEST CONTEXT: pH 7.4; conversion of profenofos to BCP, human plasma
ENDPOINT NAME: Km (µM)

>  <COMPOUND>
CCCSP(=O)(OCC)Oc1ccc(Br)cc1Cl (stereo not shown)

>  <REPORTED RESULT>
158

$$$$
